- Tested on: TK10
- Assay: SRB test, renal cancer cell line TK10
- Type: cell-based
- Applied conditions: Homo sapiens, TK-10, TK10, 48 hours, read-out: IG50 (×E−7)
pIC50: −log10 of the molar value.

[
  {
    "Compound": "C(#Cc1nc2ncccc2nc1OCCN1CCCC1)c1ccccc1 [Example 1]",
    "pIC50": 6.28
  }
]

* * *

- Tested on: SN12C
- Assay: SRB test, renal cancer cell line SN12C
- Type: cell-based
- Applied conditions: Homo sapiens, 48 hours, read-out: IG50 (×E−7)
Measurement label: IC50 (nM)

[
  {
    "Compound": "C(#Cc1nc2ncccc2nc1OCCN1CCCC1)c1ccccc1",
    "Test target": "SN12C",
    "Quantitative result": 186
  }
]

Each recorded value in this set is attributed to patent US20130164813A1.
